- systemTested: human liver GK (Homo sapiens, UniProt P35557)
- Construct: GST (glutathione S-transferase) (N)
- Sequence (P35557 1-466 isoform P35557-2): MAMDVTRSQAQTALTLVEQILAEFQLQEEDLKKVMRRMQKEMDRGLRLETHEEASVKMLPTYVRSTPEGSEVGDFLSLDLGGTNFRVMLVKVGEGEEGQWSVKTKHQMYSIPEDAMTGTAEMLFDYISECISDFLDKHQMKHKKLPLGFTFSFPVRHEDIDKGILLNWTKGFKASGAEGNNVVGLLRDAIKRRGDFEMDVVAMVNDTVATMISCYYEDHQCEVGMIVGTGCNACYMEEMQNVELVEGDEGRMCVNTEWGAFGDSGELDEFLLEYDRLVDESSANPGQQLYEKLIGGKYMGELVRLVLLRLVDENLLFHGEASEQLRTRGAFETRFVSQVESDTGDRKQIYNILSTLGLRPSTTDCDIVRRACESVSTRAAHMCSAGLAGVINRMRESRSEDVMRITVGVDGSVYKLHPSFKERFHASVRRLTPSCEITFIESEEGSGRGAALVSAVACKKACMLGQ
- testDetails: GK activation test
- reportedConditions: test compound concentration needed to activate 50% of maximum activation ability; 4 mM 14C-labeled glucose, 2 mM ATP, room temperature, 20 minutes
Task for the reader: assign each of the following molecules its reported EC50.

Use the examples below as a reference point.
molecule	result
Cc1ccc(/C(=C/C2CCCC2)c2ccc(S(=O)(=O)N(C)C)cc2)[nH]c1=O	10 to 500 nM
O=C1CC[C@H](/C=C(\c2ccc(C(F)(F)F)cc2)c2ccc(-c3cn[nH]c3)c(=O)[nH]2)N1	10 to 500 nM
CCOc1ccc(/C(=C\[C@H]2CCC(=O)N2)c2ccc(C3CC3)c(=O)[nH]2)cc1	10 to 500 nM
CC(C)(C)c1ccc(/C(=C\[C@H]2CCC(=O)N2)c2ccc(C3CC3)c(=O)[nH]2)cc1	10 to 500 nM
CC(C)Oc1ccc(/C(=C\[C@H]2CCC(=O)N2)c2ccc(C3CC3)c(=O)[nH]2)cc1Cl	10 to 500 nM
CC(=O)NC/C=C(\c1ccc(C(C)(C)C)cc1)c1ccc(Cl)c(=O)[nH]1	3000 to 10000 nM
O=C1CC[C@H](/C=C(\c2ccc(OCCCO)c(Cl)c2)c2ccc(C(F)(F)F)c(=O)[nH]2)C1	500 to 3000 nM
O=c1[nH]c(/C(=C/CCCO)c2ccc(SC3CC3)cc2)ccc1C(F)(F)F	3000 to 10000 nM
CSc1ccc(/C(=C\[C@H]2CCN(C(C)=O)C2)c2ccc(C3CC3)c(=O)[nH]2)cc1	10 to 500 nM
CCOc1ccc(/C(=C\[C@H]2CCC(=O)N2)c2ccc(C3CC3)c(=O)[nH]2)cc1F	10 to 500 nM

Proceeding to the next molecule to report its EC50.
input: Tell me reported EC50 for CC(C)c1ccc(C(C[C@H]2CCC(=O)N2)c2ccc(Cl)c(=O)[nH]2)cc1Cl (single isomer, unassigned) , tested with human liver GK (Homo sapiens, UniProt P35557).
output: 10 to 500 nM
